B1: CPEB3 Ribozyme (parent)
chain: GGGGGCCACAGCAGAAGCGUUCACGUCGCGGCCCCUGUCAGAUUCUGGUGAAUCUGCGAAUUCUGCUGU

- Variants of: B1
- test-name: self-cleavage, relative activity (ratio to wild type); higher = more cleavage; co-transcriptional
Item-by-item account of self-cleavage
Lab note: jot the number down without any unit.

As a guide, the following entries are already answered.
mutation-list | numeric-value
G4U A60G | 0.302
C29G G50C | 0.457
A52C U67C | 1

Sample G3A A52C — what was its self-cleavage? 0.577

Would you kindly repeat that for G37C U53C ? 0.284

Try this variant next: C32U U49C 1
